- System: IGROV1 ovarian
- testDetails: NCI tumour cell line growth inhibition, 48 h
This section presents molecules with their documented TGI values.
Kindly answer with a numeric value in µM, unit omitted.

Check out these entries, answers already filled in.
INSERT INTO results (molecule, property, observedvalue) VALUES
  ('CNC(=O)c1cc(Oc2ccc3nc(NC(=O)Nc4ccc(Cl)c(C(F)(F)F)c4)sc3c2)ccn1', 'TGI', 5.12),
  ('COc1cc(/C=C/c2cc(/C=C/c3ccc(O)c(OC)c3)n(C(=O)Nc3ccc(F)cc3)n2)ccc1O', 'TGI', 34.3),
  ('NC1CCC(Nc2nc(NCc3ccc(-c4ccco4)nc3)c3ncn(C4CCCC4)c3n2)CC1 (stereo not drawn)', 'TGI', 10.7);

Please find the next molecule below.
Exercise: Which TGI is reported with IGROV1 ovarian for this entry: CC1OC(OC2C(OC(=O)[C@]34CCC(C)(C)C[C@H]3C3=CC[C@@H]5[C@@]6(C)CC[C@H](OC7OC(C(=O)O)C(O)C(O)C7O)C(C)(C)[C@@H]6CC[C@@]5(C)[C@]3(C)C[C@H]4O)OCC(O)C2O)C(O)C(O)C1OC1OCC(OC2OCC(O)C(O)C2O)C(O)C1O (stereo partly drawn) ?
Key: 26.5
